Measured values drawn from patent US20150274719A1 for this set.

Here the recorded MEC (minimal effective concentration) is given for each entry.
target: recombinant guanylate cyclase reporter cell line (Rattus norvegicus, UniProt P19686+P20595); construct: expressed in transfected cells; host or cells: recombinant reporter cell line; assay: Action on recombinant guanylate cyclase reporter cell line; format: cell-based; conditions: in some cases mean values from individual determinations
Response body: numeric value in µM, unit text excluded.

Record request: MEC (minimal effective concentration) value, item `Cc1nc2c(OCc3c(F)cccc3F)cccn2c1C(=O)NCCN(C(C)C)C(C)C`
1.00

Subsequent entry: Cc1cc(OCc2c(F)cccc2F)c2nc(C)c(C(=O)NCC(C)N3CCOCC3)n2c1 (racemic) [Example 138]
0.30

Repeat for the following compound: Cc1nc2c(OCc3c(F)cccc3F)cc(F)cn2c1C(=O)NC(CN)c1ccc(F)c(F)c1 (stereo not drawn)
0.30

Follow-up item: Cc1nc2c(OCc3c(F)cccc3F)cccn2c1C(=O)NC(CN)CC(F)(F)F (racemic) [Example 2]
0.65

Same read-out for Cc1nc2c(OCc3c(F)cccc3F)cccn2c1C(=O)NC1CCNc2ccc(C(F)(F)F)cc21 (single isomer, unassigned; ent-8) [Example 111] ?
1.00

Next: C#Cc1cc(OCc2c(F)cccc2F)c2nc(C)c(C(=O)NCC(C)(N)CCC)n2c1 (stereo not drawn) [Example 356]
0.10

// same read-out, input: `Cc1nc2c(OCc3c(F)cccc3F)cccn2c1C(=O)NCCN(C)C`
2.00

Another compound to check: Cc1nc2c(OCc3c(F)cccc3F)cccn2c1C(=O)NCC(C)(N)CC(C)C (single isomer, unassigned) [Example 203]
0.10

***
Need MEC (minimal effective concentration), item Cc1nc2c(OCc3c(F)cccc3F)cccn2c1C(=O)NC(C)[C@H](C)N (single isomer, unassigned) [Example 175]
1.00

Param item: Cc1nc2c(OCc3c(F)cccc3F)cccn2c1C(=O)NCC(N)CC(F)(F)F (single isomer, unassigned) [Example 126]
0.30

Quick one: `Cc1cc(OCc2c(F)cccc2F)c2nc(C)c(C(=O)NCCN3C[C@@H](C)O[C@@H](C)C3)n2c1`
1.00

Again, but for CCCC(C)(N)CNC(=O)c1c(C)nc2c(OCc3cccc(F)c3F)cc(C)cn12 (racemic)
0.20

Next compound up: Cc1nc2c(OCc3c(F)cccc3F)cccn2c1C(=O)NC(CN)COc1ccc(F)c(F)c1 (stereo not drawn)
1.00

What would you report for `Cc1nc2c(OCc3c(F)cccc3F)cc(Cl)cn2c1C(=O)NCC1(N)CC1` ?
0.10

Could you do the same for COC(=O)c1cccc(C(N)CNC(=O)c2c(C)nc3c(OCc4c(F)cccc4F)cc(C)cn23)c1 (racemic) , please?
1.00

---

target: recombinant guanylate cyclase reporter cell line (Rattus norvegicus, UniProt P19686+P20595); construct: expressed in transfected cells; host or cells: recombinant reporter cell line; test: Action on recombinant guanylate cyclase reporter cell line; assay type: cell-based; conditions: in some cases mean values from individual determinations
TEST READOUT: MEC (minimal effective concentration) (µM)
# value in µM; strip the unit string

A selection of reference data follows.
// lookup MEC (minimal effective concentration) for Cc1nc2c(OCc3c(F)cccc3F)cccn2c1C(=O)NCC(N)C(F)(F)F (single isomer, unassigned) [Example 209]
0.30

Next entry: Cc1nc2c(OCc3c(F)cccc3F)cc(CF)cn2c1C(=O)NCC(C)(N)CF (stereo not shown) [Example 405]
0.30

Quick one: Cc1cc(OCc2c(F)cccc2F)c2nc(C)c(C(=O)NCC3(N)CCCCC3)n2c1 [Example 307]
0.65

Would you kindly look at the next entry?
Given the entry COCC(C)(N)CNC(=O)c1c(C)nc2c(OCc3c(F)cccc3F)cc(C)cn12 (racemic) [Example 166] , report its measured MEC (minimal effective concentration).
0.30

---

Molecular target: recombinant guanylate cyclase reporter cell line (Rattus norvegicus, UniProt P19686+P20595)
Construct: expressed in transfected cells; host or cells: recombinant reporter cell line
Assay: Action on recombinant guanylate cyclase reporter cell line
Assay type: cell-based
Settings: in some cases mean values from individual determinations
Experimental: B-2. Action on Recombinant Guanylate Cyclase Reporter Cell Line The cellular action of the compounds according to the invention is determined on a recombinant guanylate cyclase reporter cell line, as described in F. Wunder et al., Anal. Biochem. 339, 104-112 (2005). Representative MEC values (MEC=minimal effective concentration) for the compounds according to the invention are shown in the following table (in some cases as mean values obtained from individual determinations): […]
TEST READOUT: MEC (minimal effective concentration) (µM)
Response body: numeric value in µM, unit text excluded.

Check out these entries, answers already filled in.
Endpoint output: MEC (minimal effective concentration) of Cc1nc2c(OCc3c(F)cc(F)cc3F)cccn2c1C(=O)NC(CN)c1ccc(F)c(F)c1 (stereo not shown) . Value?
1.00

Further, for Cc1cc(OCc2c(F)cccc2F)c2nc(C)c(C(=O)NCC(C)(N)Cc3ccccn3)n2c1 (single isomer, unassigned; enantiomer a) [Example 298] ?
0.10

Can you handle Cc1cc(OCc2c(F)ccc(F)c2F)c2nc(C)c(C(=O)NCC(C)(N)CCC(F)(F)F)n2c1 (single isomer, unassigned) [Example 410] next?
0.10

Others:
What does the data say about its MEC (minimal effective concentration)? Entry: Cc1nc2c(OCc3c(F)cccc3F)cccn2c1C(=O)NC1CNc2ccccc2C1 (single isomer, unassigned; ent-8) [Example 81]
1.00

Now this one: CCCC(C)(N)CNC(=O)c1cnc2c(OCc3c(F)cccc3F)cccn12 (stereo not shown)
3.00

Try this compound too: C=Cc1cccc(C(CN)NC(=O)c2c(C)nc3c(OCc4c(F)cccc4F)cc(C)cn23)c1 (racemic)
1.00

# iterate: Cc1nc2c(OCC3CCCCC3)cccn2c1C(=O)NC(CN)c1ccc(F)c(F)c1 (racemic) [Example 46]
1.00

Try the compound Cc1cc(OCc2c(F)cccc2F)c2nc(C)c(C(=O)NCC(N)C#N)n2c1 (single isomer, unassigned; enantiomer b) [Example 402]
0.30

---

Biological target: recombinant guanylate cyclase reporter cell line (Rattus norvegicus, UniProt P19686+P20595)
Construct: expressed in transfected cells; host or cells: recombinant reporter cell line
Sequence (P19686 1-690): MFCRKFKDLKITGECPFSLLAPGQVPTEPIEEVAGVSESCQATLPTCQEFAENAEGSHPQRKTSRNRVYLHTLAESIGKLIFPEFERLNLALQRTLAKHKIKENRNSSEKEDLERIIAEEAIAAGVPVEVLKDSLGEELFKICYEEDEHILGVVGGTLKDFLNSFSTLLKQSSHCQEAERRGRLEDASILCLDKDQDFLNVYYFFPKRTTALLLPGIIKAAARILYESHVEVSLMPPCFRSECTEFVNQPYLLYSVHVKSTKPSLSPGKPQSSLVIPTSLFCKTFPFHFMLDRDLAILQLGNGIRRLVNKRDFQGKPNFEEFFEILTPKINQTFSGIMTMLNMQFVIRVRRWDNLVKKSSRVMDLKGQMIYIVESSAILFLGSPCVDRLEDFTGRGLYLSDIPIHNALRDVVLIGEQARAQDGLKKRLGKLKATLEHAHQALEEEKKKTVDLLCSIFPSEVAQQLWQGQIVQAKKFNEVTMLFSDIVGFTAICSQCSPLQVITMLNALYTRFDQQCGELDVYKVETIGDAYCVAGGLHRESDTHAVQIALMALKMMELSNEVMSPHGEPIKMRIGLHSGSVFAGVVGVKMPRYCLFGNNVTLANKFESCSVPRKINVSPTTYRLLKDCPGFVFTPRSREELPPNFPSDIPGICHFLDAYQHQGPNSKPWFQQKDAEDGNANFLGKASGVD
Sequence (P20595 1-619): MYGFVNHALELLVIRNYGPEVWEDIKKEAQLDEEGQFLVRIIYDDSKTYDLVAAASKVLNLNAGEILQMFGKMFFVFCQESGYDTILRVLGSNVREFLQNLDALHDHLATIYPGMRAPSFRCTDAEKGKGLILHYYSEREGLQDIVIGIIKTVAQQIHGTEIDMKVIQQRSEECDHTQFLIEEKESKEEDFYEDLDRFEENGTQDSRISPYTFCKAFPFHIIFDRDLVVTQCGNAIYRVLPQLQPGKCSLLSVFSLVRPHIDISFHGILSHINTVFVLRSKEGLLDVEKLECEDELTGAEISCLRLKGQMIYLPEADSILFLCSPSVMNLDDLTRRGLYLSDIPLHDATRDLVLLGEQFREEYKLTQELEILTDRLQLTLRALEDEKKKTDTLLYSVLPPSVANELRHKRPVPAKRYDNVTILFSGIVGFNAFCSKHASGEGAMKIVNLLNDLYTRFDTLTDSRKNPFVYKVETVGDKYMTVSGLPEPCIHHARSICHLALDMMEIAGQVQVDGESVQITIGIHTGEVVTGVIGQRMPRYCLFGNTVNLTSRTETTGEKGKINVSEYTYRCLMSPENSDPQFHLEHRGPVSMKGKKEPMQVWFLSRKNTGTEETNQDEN
Assay: Action on recombinant guanylate cyclase reporter cell line
Assay type: cell-based
Settings: in some cases mean values from individual determinations
TEST READOUT: MEC (minimal effective concentration) (µM)
Give the number; µM is assumed, so skip it.

Some solved entries appear below for comparison.
Which MEC (minimal effective concentration) value is on record for Cc1cc(OCc2c(F)cccc2F)c2nc(C)c(C(=O)NC(CN)c3cccc(Br)c3)n2c1 (racemic) ?
0.30

Then what about the compound Cc1nc2c(OCc3c(F)cccc3F)cccn2c1C(=O)NCC(C)(N)CCOCc1ccccc1 (single isomer, unassigned; enantiomer a) [Example 266] ?
0.03

Next entry: Cc1cc(OCc2c(F)cccc2F)c2nc(C)c(C(=O)NC3C(N)C3(C)C)n2c1 (racemic)
0.30

Shifting focus to the compound that follows.
Please report the recorded MEC (minimal effective concentration) for CCC(C)(N)CNC(=O)c1c(C)nc2c(OCc3c(F)cccc3F)cc(OC)cn12 (single isomer, unassigned; enantiomer a) .
0.3
